Cited source for all entries: ChEMBL document CHEMBL5113452

assay_procedure: Elimination rate constant in Sprague-Dawley rat plasma at 4.48 mg/kg, iv and measured upto 24 hrs by LC-MS/MS analysis
Assay type: ADME, organism-based
measurement_kind: k el at 24 h
Please provide the amount together with its unit, number first.

The recorded k el at 24 h for entry CCCC[C@@H]1OC(=O)c2ccccc21 [(3S)-BUTYLPHTHALIDE] equals 0.000202 s⁻¹

====

assay_procedure: C0 in Sprague-Dawley rat plasma at 4.48 mg/kg, iv and measured upto 24 hrs in presence of 4-F-Eda by LC-MS/MS analysis
Type: ADME, organism-based
measurement_kind: C0 at 24 h

The recorded C0 at 24 h for entry CCCC[C@@H]1OC(=O)c2ccccc21 [(3S)-BUTYLPHTHALIDE] equals 13000 ng/mL

====

assay_procedure: AUC (0-infinity) in Sprague-Dawley rat plasma at 4.53 mg/kg, iv and measured upto 24 hrs by LC-MS/MS analysis
Assay type: ADME, organism-based
Set-up: time < 24 hrs, dose 4.53 mg/kg, route iv
measurement_kind: AUC(0-inf) (ng·h/mL)
The response must be a number in ng·h/mL with no trailing unit.

The recorded AUC(0-inf) for entry `CC1=NN(c2ccc(F)cc2)C(=O)C1` equals 1360

====

assay_procedure: Volume of distribution at steady state in Sprague-Dawley rat plasma at 4.53 mg/kg, iv and measured upto 24 hrs by LC-MS/MS analysis
Format: ADME, organism-based
test_context: read-out: Vdss
measurement_kind: Vd (L/kg)
The response must be a number in L/kg with no trailing unit.

The recorded Vd for entry `CC1=NN(c2ccc(F)cc2)C(=O)C1` equals 2.39

====

assay_procedure: Clearance in Sprague-Dawley rat plasma at 4.53 mg/kg, iv and measured upto 24 hrs by LC-MS/MS analysis
Format: ADME, organism-based
measurement_kind: clearance (mL/min/kg)
The response must be a number in mL/min/kg with no trailing unit.

The recorded clearance for entry `CC1=NN(c2ccc(F)cc2)C(=O)C1` equals 55.9

====

assay_procedure: Half life in Sprague-Dawley rat plasma at 4.48 mg/kg, iv and measured upto 24 hrs by LC-MS/MS analysis
Format: ADME, organism-based
measurement_kind: half-life (min)
The response must be a number in min with no trailing unit.

The recorded half-life for entry CCCC[C@@H]1OC(=O)c2ccccc21 [(3S)-BUTYLPHTHALIDE] equals 58.2

====

assay_procedure: Clearance in Sprague-Dawley rat plasma at 4.48 mg/kg, iv and measured upto 24 hrs in presence of 4-F-Eda by LC-MS/MS analysis
Format: ADME, organism-based
measurement_kind: clearance (mL/min/kg)
The response must be a number in mL/min/kg with no trailing unit.

The recorded clearance for entry CCCC[C@@H]1OC(=O)c2ccccc21 [(3S)-BUTYLPHTHALIDE] equals 26.3

====

assay_procedure: Volume of distribution at steady state in Sprague-Dawley rat plasma at 4.53 mg/kg, iv and measured upto 24 hrs in presence of S-NBP by LC-MS/MS analysis
Type: ADME, organism-based
test_context: read-out: Vdss
measurement_kind: Vd (L/kg)
The response must be a number in L/kg with no trailing unit.

The recorded Vd for entry `CC1=NN(c2ccc(F)cc2)C(=O)C1` equals 3.45

====

assay_procedure: AUC (0-infinity) in Sprague-Dawley rat plasma at 4.48 mg/kg, iv and measured upto 24 hrs in presence of 4-F-Eda by LC-MS/MS analysis
Format: ADME, organism-based
Design: dose 4.48 mg/kg, time < 24 hrs, route iv
measurement_kind: AUC(0-inf) (ng·h/mL)
The response must be a number in ng·h/mL with no trailing unit.

The recorded AUC(0-inf) for entry CCCC[C@@H]1OC(=O)c2ccccc21 [(3S)-BUTYLPHTHALIDE] equals 2870

====

assay_procedure: MRT in Sprague-Dawley rat plasma at 4.53 mg/kg, iv and measured upto 24 hrs in presence of S-NBP by LC-MS/MS analysis
Assay type: ADME, organism-based
measurement_kind: MRT (h)
The response must be a number in h with no trailing unit.

The recorded MRT for entry `CC1=NN(c2ccc(F)cc2)C(=O)C1` equals 2.1

====

assay_procedure: Volume of distribution at steady state in Sprague-Dawley rat plasma at 4.48 mg/kg, iv and measured upto 24 hrs in presence of 4-F-Eda by LC-MS/MS analysis
Assay type: ADME, organism-based
test_context: read-out: Vdss
measurement_kind: Vd (L/kg)
The response must be a number in L/kg with no trailing unit.

The recorded Vd for entry CCCC[C@@H]1OC(=O)c2ccccc21 [(3S)-BUTYLPHTHALIDE] equals 2.73

====

assay_procedure: Cmax in Sprague-Dawley rat plasma at 4.53 mg/kg, iv and measured upto 24 hrs in presence of S-NBP by LC-MS/MS analysis
Format: ADME, organism-based
Parameters: time < 24 hrs, dose 4.53 mg/kg, route iv
measurement_kind: Cmax (ng/mL)
The response must be a number in ng/mL with no trailing unit.

The recorded Cmax for entry `CC1=NN(c2ccc(F)cc2)C(=O)C1` equals 6100

====

assay_procedure: Cmax in Sprague-Dawley rat plasma at 4.53 mg/kg, iv and measured upto 24 hrs by LC-MS/MS analysis
Format: ADME, organism-based
Design: dose 4.53 mg/kg, time < 24 hrs, route iv
measurement_kind: Cmax (ng/mL)
The response must be a number in ng/mL with no trailing unit.

The recorded Cmax for entry `CC1=NN(c2ccc(F)cc2)C(=O)C1` equals 2960

====

assay_procedure: MRT in Sprague-Dawley rat plasma at 4.48 mg/kg, iv and measured upto 24 hrs in presence of 4-F-Eda by LC-MS/MS analysis
Type: ADME, organism-based
measurement_kind: MRT (h)
The response must be a number in h with no trailing unit.

The recorded MRT for entry CCCC[C@@H]1OC(=O)c2ccccc21 [(3S)-BUTYLPHTHALIDE] equals 1.74
